System: DAN-G (Pancreatic Carcinoma);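 note: after 72 h of two-drug dosing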
Method summary: Bliss excess, mean over the matrix (fraction); higher = more synergy
Metric name: Bliss excess
Respond numerically, and do not add a unit to the figure.

Known results for molecules:
NC1(C(=O)N[C@@H](CCO)c2ccc(Cl)cc2)CCN(c2ncnc3[nH]ccc23)CC1 [Capivasertib] + COc1nnc2ccc(N3CCC(c4ccc(OCCN5CCN(C)C(=O)[C@H]5C)cc4)CC3)nn12 [AZD5153] (first compound max 10 µM, 7x7, partner max 1 µM) | 0.0578
CCN(CCO)CCCOc1ccc2c(Nc3cc(CC(=O)Nc4cccc(F)c4)[nH]n3)ncnc2c1 [AZD2811] + C=CCn1c(=O)c2cnc(Nc3ccc(N4CCN(C)CC4)cc3)nc2n1-c1cccc(C(C)(C)O)n1 [AZD1775] (first compound max 1 µM, partner max 1 µM) | -0.0144
CCc1c2c(nc3ccc(O)cc13)-c1cc3c(c(=O)n1C2)COC(=O)[C@]3(O)CC [SN-38] + CN(C)CCCOc1ccc(-c2ccc3ncc4c(c3c2)n(C2CCOCC2)c(=O)n4C)cn1 [AZD0156] (first compound max 0.3 µM, 7x7, partner max 1 µM) | 0.0626

Then this molecule:
The molecule listed as COc1nnc2ccc(N3CCC(c4ccc(OCCN5CCN(C)C(=O)[C@H]5C)cc4)CC3)nn12 [AZD5153] + CC1(C)CCC(CN2CCN(c3ccc(C(=O)NS(=O)(=O)c4ccc(NCC5CCOCC5)c([N+](=O)[O-])c4)c(Oc4cnc5[nH]ccc5c4)c3)CC2)=C(c2ccc(Cl)cc2)C1 [Venetoclax] (first compound max 1 µM, 7x7, partner max 1 µM) has a reported Bliss excess of -0.0437
